- Measurement Notes: Volume of distribution at steady state in mouse at 0.2 mg/kg, iv
- Type: ADME, organism-based
- Protocol Conditions: in vivo, read-out: Vdss
Endpoint Label: Vd (L/kg)
The reply should be a number in L/kg, with the unit left off.

Query: Tell me measured Vd for O=C1CCc2cc(N3CC[C@](O)(C(=O)NCc4cc(F)cc(Cl)c4)C3=O)ccc2N1 please.
Response: 0.78

* * *

- Measurement Notes: Passive permeability across apical to basal side in human Caco2 cells
- Format: ADME, cell-based
- Protocol Conditions: Caco-2, read-out: permeability
Endpoint Label: Papp A→B (×10⁻⁶ cm/s)
The reply should be a number in ×10⁻⁶ cm/s, with the unit left off.

Query: Tell me measured Papp A→B for O=C1CCc2cc(N3CC[C@](O)(C(=O)NCc4cc(F)cc(Cl)c4)C3=O)ccc2N1 please.
Response: 16
